From: patent US9562043B2

# SYSTEM_NAME: human TRPA1 (Homo sapiens, UniProt O75762)
# Sequence (O75762 whole entry): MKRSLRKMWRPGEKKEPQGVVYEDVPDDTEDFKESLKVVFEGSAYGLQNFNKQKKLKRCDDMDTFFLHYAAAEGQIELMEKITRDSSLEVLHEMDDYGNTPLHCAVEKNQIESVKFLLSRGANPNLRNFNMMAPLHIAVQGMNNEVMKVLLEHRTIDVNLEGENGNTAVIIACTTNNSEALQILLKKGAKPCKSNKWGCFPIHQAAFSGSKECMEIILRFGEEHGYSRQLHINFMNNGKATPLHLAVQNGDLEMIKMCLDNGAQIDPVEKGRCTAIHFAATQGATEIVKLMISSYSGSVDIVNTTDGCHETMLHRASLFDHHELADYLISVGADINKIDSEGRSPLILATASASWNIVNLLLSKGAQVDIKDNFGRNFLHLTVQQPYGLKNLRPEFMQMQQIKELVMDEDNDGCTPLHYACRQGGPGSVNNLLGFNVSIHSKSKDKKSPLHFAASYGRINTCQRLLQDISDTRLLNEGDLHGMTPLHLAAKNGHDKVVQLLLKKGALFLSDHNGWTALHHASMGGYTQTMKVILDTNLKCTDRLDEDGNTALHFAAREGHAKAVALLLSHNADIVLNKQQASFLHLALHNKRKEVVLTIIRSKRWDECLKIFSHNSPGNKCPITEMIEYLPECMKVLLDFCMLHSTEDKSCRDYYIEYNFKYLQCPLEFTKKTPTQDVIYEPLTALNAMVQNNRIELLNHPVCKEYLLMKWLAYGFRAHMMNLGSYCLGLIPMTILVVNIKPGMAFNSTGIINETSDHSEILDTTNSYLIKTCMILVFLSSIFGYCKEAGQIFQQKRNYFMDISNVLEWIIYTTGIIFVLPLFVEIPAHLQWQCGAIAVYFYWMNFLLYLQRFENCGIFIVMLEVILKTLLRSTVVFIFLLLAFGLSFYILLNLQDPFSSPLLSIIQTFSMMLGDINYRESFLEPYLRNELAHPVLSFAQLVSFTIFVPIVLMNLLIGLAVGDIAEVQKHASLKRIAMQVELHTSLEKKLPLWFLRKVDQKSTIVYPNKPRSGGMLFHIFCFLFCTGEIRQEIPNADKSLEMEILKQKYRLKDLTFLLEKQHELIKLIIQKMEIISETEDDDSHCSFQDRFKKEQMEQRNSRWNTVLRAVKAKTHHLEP
# TEST_PROTOCOL: Measurement of TRPA1 antagonist activity (intracellular calcium increase, FLIPR)
# EXPERIMENTAL_CONTEXT: 293T cells transfected with human TRPA1 expression plasmid, allylisothiocyanate 20 μM stimulation, calcium fluorescence, read-out: antagonism hTRPA1
pIC50: −log10 of the molar value.
MEASURED_PROPERTY: pIC50

(I) O=C(NCc1nc(-c2ccc(C(F)(F)F)cc2)co1)[C@@H]1CCCN1S(=O)(=O)c1ccc(Cl)s1
(II) O=C(NCc1csc(-c2ccc(C(F)(F)F)cc2)n1)[C@@H]1C=CCN1S(=O)(=O)c1ccc(Cl)s1
(III) O=C(NCc1nc(-c2ccc(C(F)(F)F)cc2)cs1)[C@@H]1C[C@@H](O)CN1S(=O)(=O)c1ccc(Cl)s1
(IV) O=C(NCc1nc(-c2ccc(C(F)(F)F)cc2)cs1)[C@@H]1CCCN1S(=O)(=O)c1ccc(Cl)nc1
Method: rank(items above, key=pIC50, ascending=True) Sort and list the labels as requested.
III, IV, I, II

(1) O=C(NCc1nc(-c2ccc(C(F)(F)F)cc2)cs1)[C@@H]1CCCN1S(=O)(=O)c1ccc(F)c(F)c1
(2) O=C(NCc1nc(-c2ccc(C(F)(F)F)cc2)cs1)[C@@H]1C=CCN1S(=O)(=O)c1ccc(Cl)s1
(3) O=C(NCc1nc(-c2ccc(C(F)(F)F)cc2)cs1)[C@@H]1CCCN1S(=O)(=O)c1ccc(F)c(Cl)c1
(4) C[C@H](NC(=O)[C@]1(C)CCCN1S(=O)(=O)c1ccc(Cl)s1)c1nc(-c2ccc(OC(F)(F)F)cc2)cs1
List by increasing pIC50. Thanks in advance for listing the labels in the requested order.
4, 3, 2, 1

----------
# SYSTEM_NAME: UniProt O75762
# TEST_PROTOCOL: Measurement of TRPA1 antagonist activity (intracellular calcium increase, FLIPR)
# EXPERIMENTAL_CONTEXT: 293T cells transfected with human TRPA1 expression plasmid, allylisothiocyanate 20 μM stimulation, calcium fluorescence, read-out: antagonism hTRPA1
pIC50: −log10 of the molar value.
MEASURED_PROPERTY: pIC50

Reference set, count: 3
Give reported pIC50 value for O=C(NCc1nc(-c2ccc(C(F)(F)F)cc2)no1)[C@@H]1CCCN1S(=O)(=O)c1ccc(Cl)s1 [compound 15]
6.62

Specify pIC50 for C[C@H](NC(=O)[C@@H]1CCCN1S(=O)(=O)c1ccc(Cl)s1)c1nc(-c2ccc(C(F)(F)F)cc2)cs1 [compound 10] and stop.
6.49

Look up and state reported pIC50 for O=C(NCc1nc(-c2ccc(C(F)(F)F)cc2)cs1)[C@@H]1CCCN1S(=O)(=O)c1cccs1 [compound 36]
5.75

(P) O=C(NCc1nc(-c2ccc(C(F)(F)F)cc2)cs1)[C@@H]1CCCN1S(=O)(=O)c1ccc(F)cc1 [compound 37]
(Q) O=C(NCc1nc(-c2ccc(C(F)(F)F)cc2)cs1)[C@@H]1CCCN1S(=O)(=O)c1cc(F)cc(F)c1 [compound 54]
(R) O=C(NCc1nc(-c2ccc(OC(F)(F)F)cc2)cs1)[C@@H]1CCN1S(=O)(=O)c1ccc(Cl)s1 [compound 32]
(S) O=C(NCc1nc(-c2ccc(C(F)(F)F)cc2)cs1)[C@@H]1CCCN1S(=O)(=O)c1ccc(F)cc1F [compound 53]
Task field, ranking: reported pIC50, descending order. Answer by naming the labels in the order asked.
Q, P, R, S

(A) O=C(NCc1ccc(-c2ccc(OC(F)(F)F)cc2)s1)[C@@H]1CCCN1S(=O)(=O)c1ccc(Cl)s1 [compound 44]
(B) O=C(NCc1nc(-c2ccc(C(F)(F)F)cc2)cs1)[C@@H]1CCCN1S(=O)(=O)c1ccc(Br)cc1 [compound 42]
Endpoint returns whichever of A and B has the numerically higher pIC50. State your choice using its label.
A
(A: 6.92, B: 5.83)

(1) Cc1sc(CNC(=O)[C@@H]2C=CCN2S(=O)(=O)c2ccc(Cl)s2)nc1-c1ccc(C(F)(F)F)cc1 [compound 23]
(2) O=C(NCc1nc(-c2cccc(C(F)(F)F)c2)cs1)[C@@H]1C=CCN1S(=O)(=O)c1ccc(Cl)s1 [compound 21]
pIC50 comparison. Which is larger, 1 or 2 ? Answer by quoting the chosen item's label.
1
(1: 6.85, 2: 6.15)

(A) O=C(NCc1nc(-c2ccccc2)cs1)[C@@H]1CCCN1S(=O)(=O)c1ccc(Cl)s1 [compound 4]
(B) O=C(NCc1nc(-c2ccc(C(F)(F)F)cc2)cs1)[C@@H]1CCCN1S(=O)(=O)c1ccc(Br)s1 [compound 39]
I'd appreciate it if you could identify which of A and B has the greater pIC50. State the label of the item chosen.
B

----------
# SYSTEM_NAME: human TRPA1 (Homo sapiens, UniProt O75762)
# TEST_PROTOCOL: Measurement of TRPA1 antagonist activity (intracellular calcium increase, FLIPR)
# EXPERIMENTAL_CONTEXT: 293T cells transfected with human TRPA1 expression plasmid, allylisothiocyanate 20 μM stimulation, calcium fluorescence, read-out: antagonism hTRPA1
pIC50: −log10 of the molar value.
MEASURED_PROPERTY: pIC50

(I) O=C(NCc1nc(-c2ccc(C(F)(F)F)cc2)cs1)[C@@H]1CCCN1S(=O)(=O)c1cccc(Cl)c1
(II) O=C(NCc1nc(-c2ccc(OC(F)(F)F)cc2)co1)[C@@H]1CCCN1S(=O)(=O)c1ccc(Cl)s1
In terms of reported pIC50, does I or II have the smaller number? Returns: label corresponding to the selected item.
I
(I: 5.57, II: 6.92)

(a) Cc1ccc(S(=O)(=O)N2CCC[C@H]2C(=O)NCc2nc(-c3ccc(C(F)(F)F)cc3)cs2)s1
(b) O=C(NCc1nc(-c2ccc(C(F)(F)F)cc2)co1)[C@@H]1C=CCN1S(=O)(=O)c1ccc(Cl)s1
Consider entries a and b . Which has the numerically lower pIC50? Indicate your choice by writing its label.
a

----------
# SYSTEM_NAME: human TRPA1 (Homo sapiens)
# TEST_PROTOCOL: Measurement of TRPA1 antagonist activity (intracellular calcium increase, FLIPR)
# EXPERIMENTAL_CONTEXT: 293T cells transfected with human TRPA1 expression plasmid, allylisothiocyanate 20 μM stimulation, calcium fluorescence, read-out: antagonism hTRPA1
MEASURED_PROPERTY: IC50 (nM)

Worked examples, 3 molecules total:
// fetch IC50 given entry O=C(NCc1nc(-c2ccc(C(F)(F)F)cc2)cs1)[C@@H]1CCN1S(=O)(=O)c1ccc(Cl)s1
750

Please supply the value of reported IC50 for the item Cc1ccc(-c2csc(CNC(=O)[C@@H]3CCCN3S(=O)(=O)c3ccc(Cl)s3)n2)cc1
580

Return reported IC50. Input molecule: Cc1cc(CNC(=O)[C@@H]2CCCN2S(=O)(=O)c2ccc(Cl)s2)nn1-c1ccc(Cl)cc1
4440

(a) Cc1sc(-c2ccc(C(F)(F)F)cc2)nc1CNC(=O)[C@@H]1CCCN1S(=O)(=O)c1ccc(Cl)s1
(b) C[C@@]1(C(=O)NCc2nc(-c3ccc(C(F)(F)F)cc3)cs2)CCCN1S(=O)(=O)c1ccc(Cl)s1
Sorting by IC50 in descending order, would a or b appear first? State your choice using its label.
b

(P) O=C(NCc1nc(-c2ccc(OC(F)(F)F)c(F)c2)cs1)[C@@H]1C=CCN1S(=O)(=O)c1ccc(Cl)s1
(Q) O=C(NCc1nc(-c2ccc(C(F)(F)F)cc2)cs1)[C@@H]1CCCN1S(=O)(=O)c1ccc(Cl)cc1
Could you point out whether the larger IC50 belongs to P or to Q ? Please reply using the label of the selected record.
Q

(P) O=C(NCc1nc(-c2ccc(C(F)(F)F)cc2)cs1)[C@@H]1CSCN1S(=O)(=O)c1ccc(Cl)s1
(Q) Cc1sc(CNC(=O)[C@@H]2CCCN2S(=O)(=O)c2ccc(Cl)s2)nc1-c1ccc(C(F)(F)F)cc1
(R) O=C(NCc1nc(-c2ccc(C(F)(F)F)cc2)cs1)[C@@H]1CCCN1S(=O)(=O)c1ccco1
Number of molecules to sort: 3. Sort criterion: IC50, ascending. Present the labels in the sequence the task asks for.
Q, P, R
(Q: 150 nM, P: 580 nM, R: 990 nM)

(A) O=C(NCc1nc(-c2ccc(Cl)cc2)cs1)[C@@H]1C=CCN1S(=O)(=O)c1ccc(Cl)s1
(B) O=C(NCc1nc(-c2ccc(OC(F)(F)F)cc2)cs1)[C@@H]1CCCN1S(=O)(=O)c1ccc(Cl)s1
Hey, between A and B which has a smaller measured IC50? Let me know the label of the one you choose.
B
(B: 160 nM, A: 560 nM)

----------
# SYSTEM_NAME: human TRPA1 (Homo sapiens)
# TEST_PROTOCOL: Measurement of TRPA1 antagonist activity (intracellular calcium increase, FLIPR)
# EXPERIMENTAL_CONTEXT: 293T cells transfected with human TRPA1 expression plasmid, allylisothiocyanate 20 μM stimulation, calcium fluorescence, read-out: antagonism hTRPA1
pIC50: −log10 of the molar value.
MEASURED_PROPERTY: pIC50

Tell us which pIC50 value is on record for O=C(NCc1nc(-c2cccc(C(F)(F)F)c2)cs1)[C@@H]1CCCN1S(=O)(=O)c1ccc(Cl)s1
6.08

For the compound O=C(NCc1nc(-c2ccc(C(F)(F)F)cc2)cs1)[C@@H]1CC(F)(F)CN1S(=O)(=O)c1ccc(Cl)s1 , report pIC50.
6.02

Fill in pIC50 for record O=C(NCc1nc(-c2ccc(C(F)(F)F)cc2)cs1)[C@@H]1CCCN1S(=O)(=O)c1ccccc1
6.09

(A) O=C(NCc1nc(-c2ccc(OC(F)(F)F)cc2)cs1)[C@@H]1C=CCN1S(=O)(=O)c1ccc(Cl)s1
(B) O=C(NCc1nc(-c2ccc(OC(F)(F)F)c(F)c2)cs1)[C@@H]1CCCN1S(=O)(=O)c1ccc(Cl)s1
(C) O=C(NCc1nc(-c2ccc(C(F)(F)F)cc2)c[nH]1)[C@@H]1CCCN1S(=O)(=O)c1ccc(Cl)s1
(D) C[C@@]1(C(=O)NCc2nc(-c3ccc(OC(F)(F)F)cc3)cs2)CCCN1S(=O)(=O)c1ccc(Cl)s1
Output the entries ranked by pIC50 from maximum down to minimum. Respond with an ordered listing of the labels, as requested.
A, B, D, C
